# protocol-description: Single oral dose (5 mg/kg) pharmacokinetics of firocoxib in koalas, plasma HPLC, non-compartmental analysis
# condition-notes: both, plasma, po, 5 mg/kg, Tmax, harmonic mean, n = 6 koalas; single oral 5 mg/kg
measured-attribute: Tmax (h)

smi	display-unit	observed-value
CC1(C)OC(=O)C(OCC2CC2)=C1c1ccc(S(C)(=O)=O)cc1	h	3.69

====

# protocol-description: Single oral dose (5 mg/kg) pharmacokinetics of firocoxib in koalas, plasma HPLC, non-compartmental analysis
# condition-notes: female, plasma, po, 5 mg/kg, AUC0-inf, K4 female; single oral 5 mg/kg
measured-attribute: AUC(0-inf) (ng·h/mL)

compound	measured-attribute	display-unit	observed-value
CC1(C)OC(=O)C(OCC2CC2)=C1c1ccc(S(C)(=O)=O)cc1 [firocoxib]	AUC(0-inf)	ng·h/mL	973

====

# protocol-description: Single oral dose (5 mg/kg) pharmacokinetics of firocoxib in koalas, plasma HPLC, non-compartmental analysis
# condition-notes: male, plasma, po, 5 mg/kg, AUC0-inf, K3 male; single oral 5 mg/kg
measured-attribute: AUC(0-inf)

smi	measured-attribute	observed-value
CC1(C)OC(=O)C(OCC2CC2)=C1c1ccc(S(C)(=O)=O)cc1	AUC(0-inf)	1950 ng·h/mL

====

# protocol-description: Single oral dose (5 mg/kg) pharmacokinetics of firocoxib in koalas, plasma HPLC, non-compartmental analysis
# condition-notes: female, plasma, po, 5 mg/kg, Cmax, arithmetic mean, female koalas (n = 3); single oral 5 mg/kg

compound	Cmax / ng/mL
CC1(C)OC(=O)C(OCC2CC2)=C1c1ccc(S(C)(=O)=O)cc1 [firocoxib]	60.3

====

# protocol-description: Single oral dose (5 mg/kg) pharmacokinetics of firocoxib in koalas, plasma HPLC, non-compartmental analysis
# condition-notes: female, koala (Phascolarctos cinereus), plasma, po, 5 mg/kg, Firocoxib plasma concentration, K5 female; 2 h; single oral 5 mg/kg
measured-attribute: concentration at 2 h (µg/mL)

compound	measured-attribute	display-unit	observed-value
CC1(C)OC(=O)C(OCC2CC2)=C1c1ccc(S(C)(=O)=O)cc1 [firocoxib]	concentration at 2 h	µg/mL	0.0619

====

# protocol-description: Single oral dose (5 mg/kg) pharmacokinetics of firocoxib in koalas, plasma HPLC, non-compartmental analysis
# condition-notes: both, plasma, po, 5 mg/kg, AUC0-t, harmonic mean, n = 6 koalas; single oral 5 mg/kg
measured-attribute: AUC(0-t) (ng·h/mL)

compound	observed-value
CC1(C)OC(=O)C(OCC2CC2)=C1c1ccc(S(C)(=O)=O)cc1 [firocoxib]	974

====

# protocol-description: Single oral dose (5 mg/kg) pharmacokinetics of firocoxib in koalas, plasma HPLC, non-compartmental analysis
# condition-notes: male, koala, plasma, po, 5 mg/kg, Firocoxib plasma concentration, K3 male; 0.25 h; single oral 5 mg/kg

smi	display-unit	concentration at 0.25 h
CC1(C)OC(=O)C(OCC2CC2)=C1c1ccc(S(C)(=O)=O)cc1	ng/mL	16.6

====

# protocol-description: Single oral dose (5 mg/kg) pharmacokinetics of firocoxib in koalas, plasma HPLC, non-compartmental analysis
# condition-notes: female, plasma, po, 5 mg/kg, Cmax, K6 female; single oral 5 mg/kg

smi	display-unit	Cmax
CC1(C)OC(=O)C(OCC2CC2)=C1c1ccc(S(C)(=O)=O)cc1	ng/mL	28.9

====

# protocol-description: Repeated oral dosing (5 mg/kg every 12 h, six doses) plasma trough concentrations in koalas
# Format: in vivo
# condition-notes: male, koala (Phascolarctos cinereus), plasma, median (range), males, 24 h, 5 mg/kg oral every 12 h, read-out: Firocoxib trough plasma concentration
# Procedure: At least 2 months after the initial single oral dose administration study, firocoxib was administered twice daily at a dose of 5 mg/kg orally (as described in the single dose administration) for three consecutive days with the last dose administered 60 h after first administration, with a total of six doses administered. Blood (2 mL) was collected once daily into lithium heparin tubes at […] after first firocoxib dosage (prior to the morning dose). […]
measured-attribute: concentration at 24 h (ng/mL)

smi	observed-value
CC1(C)OC(=O)C(OCC2CC2)=C1c1ccc(S(C)(=O)=O)cc1	26.1

====

# protocol-description: Single oral dose (5 mg/kg) pharmacokinetics of firocoxib in koalas, plasma HPLC, non-compartmental analysis
# condition-notes: female, plasma, po, 5 mg/kg, AUC0-t, arithmetic mean, female koalas (n = 3); single oral 5 mg/kg
measured-attribute: AUC(0-t) (ng·h/mL)

smi	measured-attribute	observed-value
CC1(C)OC(=O)C(OCC2CC2)=C1c1ccc(S(C)(=O)=O)cc1	AUC(0-t)	739

====

# protocol-description: Single oral dose (5 mg/kg) pharmacokinetics of firocoxib in koalas, plasma HPLC, non-compartmental analysis
# condition-notes: female, plasma, po, 5 mg/kg, t1/2, harmonic mean, female koalas (n = 3); single oral 5 mg/kg

compound	half-life
CC1(C)OC(=O)C(OCC2CC2)=C1c1ccc(S(C)(=O)=O)cc1 [firocoxib]	5.87 h

====

# protocol-description: Single oral dose (5 mg/kg) pharmacokinetics of firocoxib in koalas, plasma HPLC, non-compartmental analysis
# condition-notes: male, plasma, po, 5 mg/kg, AUC0-inf, K2 male; single oral 5 mg/kg

smi	AUC(0-inf)
CC1(C)OC(=O)C(OCC2CC2)=C1c1ccc(S(C)(=O)=O)cc1	1540 ng·h/mL

====

# protocol-description: Single oral dose (5 mg/kg) pharmacokinetics of firocoxib in koalas, plasma HPLC, non-compartmental analysis
# condition-notes: male, plasma, po, 5 mg/kg, Vz/F, arithmetic mean, male koalas (n = 3); single oral 5 mg/kg

compound	Vd/F
CC1(C)OC(=O)C(OCC2CC2)=C1c1ccc(S(C)(=O)=O)cc1 [firocoxib]	181 L

====

# protocol-description: Single oral dose (5 mg/kg) pharmacokinetics of firocoxib in koalas, plasma HPLC, non-compartmental analysis
# condition-notes: female, koala, plasma, po, 5 mg/kg, Firocoxib plasma concentration, K6 female; 0.25 h; single oral 5 mg/kg

smi	display-unit	concentration at 0.25 h
CC1(C)OC(=O)C(OCC2CC2)=C1c1ccc(S(C)(=O)=O)cc1	ng/mL	3.58

====

# protocol-description: Single oral dose (5 mg/kg) pharmacokinetics of firocoxib in koalas, plasma HPLC, non-compartmental analysis
# condition-notes: male, plasma, po, 5 mg/kg, t1/2 (elimination half-life), K2 male; single oral 5 mg/kg

smi	display-unit	half-life
CC1(C)OC(=O)C(OCC2CC2)=C1c1ccc(S(C)(=O)=O)cc1	h	3.31

====

# protocol-description: Single oral dose (5 mg/kg) pharmacokinetics of firocoxib in koalas, plasma HPLC, non-compartmental analysis
# condition-notes: both, plasma, po, 5 mg/kg, Tmax, median value, both sexes, koala (6); PO 5 mg/kg
measured-attribute: Tmax (h)

smi	measured-attribute	display-unit	observed-value
CC1(C)OC(=O)C(OCC2CC2)=C1c1ccc(S(C)(=O)=O)cc1	Tmax	h	4

====

# protocol-description: Single oral dose (5 mg/kg) pharmacokinetics of firocoxib in koalas, plasma HPLC, non-compartmental analysis
# condition-notes: female, koala (Phascolarctos cinereus), plasma, po, 5 mg/kg, Firocoxib plasma concentration, K6 female; 2 h; single oral 5 mg/kg

molecule	display-unit	concentration at 2 h
CC1(C)OC(=O)C(OCC2CC2)=C1c1ccc(S(C)(=O)=O)cc1 [firocoxib]	ng/mL	12.3

====

# protocol-description: Single oral dose (5 mg/kg) pharmacokinetics of firocoxib in koalas, plasma HPLC, non-compartmental analysis
# condition-notes: male, plasma, po, 5 mg/kg, AUC 0-inf, arithmetic mean, male koalas (n = 3); single oral 5 mg/kg
measured-attribute: AUC(0-inf) (ng·h/mL)

smi	measured-attribute	observed-value
CC1(C)OC(=O)C(OCC2CC2)=C1c1ccc(S(C)(=O)=O)cc1	AUC(0-inf)	2160

====

# protocol-description: Single oral dose (5 mg/kg) pharmacokinetics of firocoxib in koalas, plasma HPLC, non-compartmental analysis
# condition-notes: male, koala (Phascolarctos cinereus), plasma, po, 5 mg/kg, Firocoxib plasma concentration, K2 male; 4 h; single oral 5 mg/kg
measured-attribute: concentration at 4 h (ng/mL)

smi	observed-value
CC1(C)OC(=O)C(OCC2CC2)=C1c1ccc(S(C)(=O)=O)cc1	210

====

# protocol-description: Single oral dose (5 mg/kg) pharmacokinetics of firocoxib in koalas, plasma HPLC, non-compartmental analysis
# condition-notes: male, koala (Phascolarctos cinereus), plasma, po, 5 mg/kg, Firocoxib plasma concentration, K3 male; 4 h; single oral 5 mg/kg

compound	display-unit	concentration at 4 h
CC1(C)OC(=O)C(OCC2CC2)=C1c1ccc(S(C)(=O)=O)cc1 [firocoxib]	ng/mL	263

====

# protocol-description: Single oral dose (5 mg/kg) pharmacokinetics of firocoxib in koalas, plasma HPLC, non-compartmental analysis;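 further: healthy adult koalas, three per sex, anaesthetised the day before dosing for cephalic vein catheterisation, with serial blood draws and firocoxib in plasma quantified by HPLC using fluorescence detection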
# condition-notes: male, plasma, po, 5 mg/kg, Cmax, arithmetic mean, male koalas (n = 3); single oral 5 mg/kg

compound	Cmax, µg/mL
CC1(C)OC(=O)C(OCC2CC2)=C1c1ccc(S(C)(=O)=O)cc1 [firocoxib]	0.221
